Reference source for all entries: PubChem BioAssay AID2060605

Test system: 947758-054-R-J2-PDC spheroid growth, percent test/control
Assay: Anticancer human tumor 947758-054-R-J2-PDC patient-derived colon adenocarcinoma cell line growth inhibition [CLK]
Settings: second compound 10 µM; first compound 1 µM; active compounds read low; spheroids with HUVEC and MSC
// reported viability, T/C for each item listed
Respond with the bare value in %.

molecule: CCN1CCN(Cc2ccc(Nc3ncc(F)c(-c4cc(F)c5nc(C)n(C(C)C)c5c4)n3)nc2)CC1 + CN1CCN(c2cc(C(=O)Nc3cc4cc(-c5cnn(C)c5)ccc4cn3)ccn2)CC1
viability, T/C / %: 2.67

molecule: COC1C=CCC(C)C(C)S(=O)(=O)NC(=O)c2ccc3c(c2)N(CC2CCC21)CC1(CCCc2cc(Cl)ccc21)CO3 (stereo not drawn) + CN1CCN(c2cc(C(=O)Nc3cc4cc(-c5cnn(C)c5)ccc4cn3)ccn2)CC1
viability, T/C / %: 1.77

Next molecule, please.
# input Would you mind telling me what viability, T/C value was observed for O=C(c1cc(Cc2n[nH]c(=O)c3ccccc23)ccc1F)N1CCN(C(=O)C2CC2)CC1 + CNC(=O)c1ccc(Nc2nc(OC3CCCC3)c3c(-c4ccc5nc(C)oc5c4)c[nH]c3n2)c(OC)c1 ?
# output 34.4

---

Test system: 947758-054-R-J2-PDC spheroid growth, percent test/control
Assay: Anticancer human tumor 947758-054-R-J2-PDC cell line growth inhibition [CLK]; active = viability on the fitted dose curve at most 10% of control; inactive = the rest;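 note: spheroids exposed to compounds for one week before readout; 100% = DMSO vehicle control wells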
Details: second compound 3.16 µM; first compound 10 µM; spheroids with HUVEC and MSC
// allowed return values: active, inactive

Reference set, count: 5
compound: C=CC(=O)N1CCN(c2nc(=O)n(-c3c(C)ccnc3C(C)C)c3nc(-c4c(O)cccc4F)c(F)cc23)C(C)C1 (stereo unspecified) + CN1CCN(c2cc(C(=O)Nc3cc4cc(-c5cnn(C)c5)ccc4cn3)ccn2)CC1
labelClass: active
//
compound: O=c1[nH]cc(F)c(=O)[nH]1 + CN1CCN(c2cc(C(=O)Nc3cc4cc(-c5cnn(C)c5)ccc4cn3)ccn2)CC1
labelClass: active
//
compound: CC(Nc1ccc2c(c1)OCCn1cc(N3C(=O)OCC3C(F)F)nc1-2)C(N)=O (stereo unspecified) + CN1CCN(c2cc(C(=O)Nc3cc4cc(-c5cnn(C)c5)ccc4cn3)ccn2)CC1
labelClass: active
//
compound: COc1ccc([C@@H](O)c2cc(-c3ncnc4cc(N5CCOCC5)ccc34)c(F)cc2Cl)nn1 + CN1CCN(c2cc(C(=O)Nc3cc4cc(-c5cnn(C)c5)ccc4cn3)ccn2)CC1
labelClass: active
//
compound: C=C(F)C(=O)N1CCN(c2nc(OCC3CCCN3C)nc3c2CCN(c2cccc4cccc(Cl)c24)C3)CC1CC#N (stereo unspecified) + CN1CCN(c2cc(C(=O)Nc3cc4cc(-c5cnn(C)c5)ccc4cn3)ccn2)CC1
labelClass: active

# input I would be grateful if you could indicate the recorded call for C=CC(=O)N1CCN(c2nc(=O)n(-c3c(C)ccnc3C(C)C)c3nc(-c4c(O)cccc4F)c(F)cc23)C(C)C1 (stereo unspecified) + CNC(=O)c1ccc(Nc2nc(OC3CCCC3)c3c(-c4ccc5nc(C)oc5c4)c[nH]c3n2)c(OC)c1 .
# output inactive

---

Test system: 947758-054-R-J2-PDC spheroid growth, percent test/control
Assay: Anticancer human tumor 947758-054-R-J2-PDC cell line growth inhibition [CLK]; active = viability on the fitted dose curve at most 10% of control; inactive = the rest;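 note: spheroids exposed to compounds for one week before readout; 100% = DMSO vehicle control wells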
Details: second compound 10 µM; first compound 3.16 µM; spheroids with HUVEC and MSC
Just give me one of these, please: Yes (active), No (inactive)

Previously resolved entries follow.
molecule: CC(Nc1ccc2c(c1)OCCn1cc(N3C(=O)OCC3C(F)F)nc1-2)C(N)=O (stereo not given) + CNC(=O)c1ccc(Nc2nc(OC3CCCC3)c3c(-c4ccc5nc(C)oc5c4)c[nH]c3n2)c(OC)c1
target: 947758-054-R-J2-PDC spheroid growth, percent test/control
labelClass: Yes
//
molecule: Nc1ccccc1NC(=O)c1ccc(CNC(=O)OCc2cccnc2)cc1 + CNC(=O)c1ccc(Nc2nc(OC3CCCC3)c3c(-c4ccc5nc(C)oc5c4)c[nH]c3n2)c(OC)c1
target: 947758-054-R-J2-PDC spheroid growth, percent test/control
labelClass: No
//
molecule: CCCS(=O)(=O)Nc1ccc(F)c(C(=O)c2c[nH]c3ncc(-c4ccc(Cl)cc4)cc23)c1F + CN1CCN(c2cc(C(=O)Nc3cc4cc(-c5cnn(C)c5)ccc4cn3)ccn2)CC1
target: 947758-054-R-J2-PDC spheroid growth, percent test/control
labelClass: Yes
//
molecule: COc1ccc([C@@H](O)c2cc(-c3ncnc4cc(N5CCOCC5)ccc34)c(F)cc2Cl)nn1 + CNC(=O)c1ccc(Nc2nc(OC3CCCC3)c3c(-c4ccc5nc(C)oc5c4)c[nH]c3n2)c(OC)c1
target: 947758-054-R-J2-PDC spheroid growth, percent test/control
labelClass: No

# input Dear colleague, could you share the recorded outcome for C=C(F)C(=O)N1CCN(c2nc(OCC3CCCN3C)nc3c2CCN(c2cccc4cccc(Cl)c24)C3)CC1CC#N (stereo not given) + CN1CCN(c2cc(C(=O)Nc3cc4cc(-c5cnn(C)c5)ccc4cn3)ccn2)CC1 when you have a moment?
# output Yes

# input Fill in: this test's call for O=C(c1cc(Cc2n[nH]c(=O)c3ccccc23)ccc1F)N1CCN(C(=O)C2CC2)CC1 + CN1CCN(c2cc(C(=O)Nc3cc4cc(-c5cnn(C)c5)ccc4cn3)ccn2)CC1 is ___
# output Yes

# input Which outcome did this test record for the molecule CC(CO)NC(=O)c1cc(-c2ccc(Cl)cc2)nn(-c2cnn(C)c2)c1=O (stereo not given) + CN1CCN(c2cc(C(=O)Nc3cc4cc(-c5cnn(C)c5)ccc4cn3)ccn2)CC1 ?
# output Yes

# input Could you please tell me the result logged for COc1cccc2c1C(=O)c1c(O)c3c(c(O)c1C2=O)CC(O)(C(=O)CO)CC3OC1CC(N)C(O)C(C)O1 (stereo not given) + CNC(=O)c1ccc(Nc2nc(OC3CCCC3)c3c(-c4ccc5nc(C)oc5c4)c[nH]c3n2)c(OC)c1 in this assay?
# output Yes

# input // return assay outcome for CC1(C)CCC(CN2CCN(c3ccc(C(=O)NS(=O)(=O)c4ccc(NCC5CCOCC5)c([N+](=O)[O-])c4)c(Oc4cnc5[nH]ccc5c4)c3)CC2)=C(c2ccc(Cl)cc2)C1 + CNC(=O)c1ccc(Nc2nc(OC3CCCC3)c3c(-c4ccc5nc(C)oc5c4)c[nH]c3n2)c(OC)c1
# output No

# input // param item: COc1cccc2c1C(=O)c1c(O)c3c(c(O)c1C2=O)CC(O)(C(=O)CO)CC3OC1CC(N)C(O)C(C)O1 (stereo not given) + CN1CCN(c2cc(C(=O)Nc3cc4cc(-c5cnn(C)c5)ccc4cn3)ccn2)CC1 ; yields the recorded call
# output Yes

---

Form field: viability, T/C (one value per entry).
Tested on: 947758-054-R-J2-PDC spheroid growth, percent test/control
Test: Anticancer human tumor 947758-054-R-J2-PDC cell line growth inhibition [CLK];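 note: spheroids exposed to compounds for one week before readout; 100% = DMSO vehicle control wells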
Settings: second compound 0.316 µM; first compound 0.00949 µM; active compounds read low; spheroids with HUVEC and MSC
Respond with the bare value in %.

molecule: C=CC(=O)Nc1cc(Nc2nccc(-c3cn(C)c4ccccc34)n2)c(OC)cc1N(C)CCN(C)C + CNC(=O)c1ccc(Nc2nc(OC3CCCC3)c3c(-c4ccc5nc(C)oc5c4)c[nH]c3n2)c(OC)c1
assayEndpoint: viability, T/C
u: %
recordedMeasurement: 65.8

# input May I ask what viability, T/C has been recorded for C=CC(=O)Nc1cc(Nc2nccc(-c3cn(C)c4ccccc34)n2)c(OC)cc1N(C)CCN(C)C + CN1CCN(c2cc(C(=O)Nc3cc4cc(-c5cnn(C)c5)ccc4cn3)ccn2)CC1 ?
# output 2.55

# input Item NC(=O)C(=Cn1cnc(-c2cc(C(F)(F)F)cc(C(F)(F)F)c2)n1)c1cncnc1 + CN1CCN(c2cc(C(=O)Nc3cc4cc(-c5cnn(C)c5)ccc4cn3)ccn2)CC1 has what recorded viability, T/C?
# output 0.44

# input Item under review: NC(=O)C(=Cn1cnc(-c2cc(C(F)(F)F)cc(C(F)(F)F)c2)n1)c1cncnc1 + CNC(=O)c1ccc(Nc2nc(OC3CCCC3)c3c(-c4ccc5nc(C)oc5c4)c[nH]c3n2)c(OC)c1 . Reported viability, T/C?
# output 53.1

# input viability, T/C lookup needed for CC(C)CC(NC(=O)C(Cc1ccccc1)NC(=O)c1cnccn1)B(O)O (stereo unspecified) + CN1CCN(c2cc(C(=O)Nc3cc4cc(-c5cnn(C)c5)ccc4cn3)ccn2)CC1 , thanks.
# output 0.22

# input I have this molecule here, CC(C)CC(NC(=O)C(Cc1ccccc1)NC(=O)c1cnccn1)B(O)O (stereo unspecified) + CNC(=O)c1ccc(Nc2nc(OC3CCCC3)c3c(-c4ccc5nc(C)oc5c4)c[nH]c3n2)c(OC)c1 , and I need its recorded viability, T/C.
# output 0.22
